Origin of values: patent US11932673

// values below are reported Tryspin binding signal (FU)
molecular target: trypsin; experiment: monoclonal phage TRF
Answer in FU, number only, no unit symbol.

Solved cases (4 shown):
>  <Binder>
KB_A11 (scFv, V domains shown) VH: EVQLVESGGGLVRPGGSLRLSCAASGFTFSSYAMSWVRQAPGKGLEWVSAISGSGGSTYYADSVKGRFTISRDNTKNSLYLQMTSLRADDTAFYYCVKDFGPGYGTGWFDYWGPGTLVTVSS VL: YLNWYQQKPGKAPKLLIYAAEICPRILMRCKQDSDCLAGCVCGPNGFCGPSSGIPARFSGSGYGTDFTLTINNIESEDAAYYFCLQHDNFPYTFGQGTKVEIKR

>  <Tryspin binding signal (FU)>
16400

$$$$
>  <Binder>
KB_C09 (scFv, V domains shown) VH: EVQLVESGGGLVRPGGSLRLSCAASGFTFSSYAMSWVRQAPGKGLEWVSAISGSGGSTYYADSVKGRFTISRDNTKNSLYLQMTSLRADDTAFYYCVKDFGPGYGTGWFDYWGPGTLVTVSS VL: AVNWYQQLPGKAPKLLIYAAGRCPRILMRCKQDSDCLAGCVCGPNGFCGGGSGVPDRFSGSIDSSSNSASLTISGLRAEDEADYYCQSYDSSNHWVFGGGTKLTVLG

>  <Tryspin binding signal (FU)>
89400

$$$$
>  <Binder>
KB_B01 (scFv, V domains shown) VH: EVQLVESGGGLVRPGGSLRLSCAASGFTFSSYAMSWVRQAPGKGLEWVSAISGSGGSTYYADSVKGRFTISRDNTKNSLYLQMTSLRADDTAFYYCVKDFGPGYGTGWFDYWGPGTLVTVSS VL: AVNWYQQLPGKAPKLLIYAAAGCPRILMRCKQDSDCLAGCVCGPNGFCGTRSGVSDRFSGSKSGTSASLAISGLRSEDEADYYCAAWDDSLRAYVFGTGTKLTVLG

>  <Tryspin binding signal (FU)>
57700

$$$$
>  <Binder>
KB_B02 (scFv, V domains shown) VH: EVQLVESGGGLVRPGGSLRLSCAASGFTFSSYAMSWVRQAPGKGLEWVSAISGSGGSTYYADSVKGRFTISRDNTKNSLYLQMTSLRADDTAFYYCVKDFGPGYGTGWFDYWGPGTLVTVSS VL: AVNWYQQLPGKAPKLLIYAAVGCPRILMRCKQDSDCLAGCVCGPNGFCGTGSGIPERFSGSKSGNTASLTISGLQAEDEGDYYCAAWDDSLSGPVFGGGTKLTVLG

>  <Tryspin binding signal (FU)>
116000

$$$$

Turning now to a further binder:
(Q) What value of measured Tryspin binding signal (FU) is listed for KB_A03 (scFv, V domains shown) VH: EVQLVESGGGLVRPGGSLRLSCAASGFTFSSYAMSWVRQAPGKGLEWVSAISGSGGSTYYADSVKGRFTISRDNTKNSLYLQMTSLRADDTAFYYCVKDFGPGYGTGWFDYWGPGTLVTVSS VL: AVNWYQQLPGKAPKLLINAADRCPRILMRCKQDSDCLAGCVCGPNGFCGTNSGVPDRFSGSSSGNTASLTITGAQAEDEADYYCNSRDSSGNNWVFGGGTKVTVLG ?
(A) 28700
